Reported pIC50 values follow for various molecules
- Tested On: human Cat L (Homo sapiens (Human), UniProt P07711)
- Sequence (P07711 114-333): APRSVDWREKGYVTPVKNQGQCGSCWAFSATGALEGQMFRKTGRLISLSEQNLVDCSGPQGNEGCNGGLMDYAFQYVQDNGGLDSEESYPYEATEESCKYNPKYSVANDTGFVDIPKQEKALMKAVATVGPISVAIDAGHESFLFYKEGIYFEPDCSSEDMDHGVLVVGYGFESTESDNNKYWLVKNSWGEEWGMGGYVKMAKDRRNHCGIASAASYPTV
- Procedure Text: Cathepsin enzyme inhibition assay (human Cat L)
- Format: biochemical
- Run Conditions: enzyme 1 nM, substrate Z-Val-Val-Arg-AMC 20 μM, pH 6.5
Where a name gives a salt, the structure may show the parent alone.
Quick note: pIC50 means taking -log10 of the concentration in moles per liter.

Look over these answered cases.
Incoming: Form field: pIC50 recorded for Cn1cc(-c2ccc(S(=O)(=O)[C@@H]3C[C@@H](C(=O)NC4(C#N)CC4)N(C(=O)C4(c5ncc(Cl)cc5F)CCN4C(=O)OC(C)(C)C)C3)c(Cl)c2)cn1 (stereo partly drawn) with human Cat L (Homo sapiens (Human), UniProt P07711) (enter value)
Outgoing: 6.20

Incoming: Under human Cat L (Homo sapiens (Human), UniProt P07711): pIC50 value of `N#CC1(NC(=O)[C@@H]2C[C@@H](S(=O)(=O)c3ccccc3Cl)CN2C(=O)C2(c3ncc(Br)cc3F)CNC2)CC1` ?
Outgoing: 8.34

Next molecule, pIC50 to be filled in.
Incoming: Could you share what pIC50 was measured for Cc1cc(-c2ccc(S(=O)(=O)[C@@H]3C[C@@H](C(=O)NC4(C#N)CC4)N(C(=O)C4(c5ncc(Br)cc5F)CCN4)C3)c(Cl)c2)ccn1 (stereo partly drawn) [Example 44, hydrochloride] , tested on human Cat L (Homo sapiens (Human), UniProt P07711)?
Outgoing: 7.15

Data provenance: patent US8822505B2
